- TESTED_TARGET: human ERα (Homo sapiens, UniProt P03372)
- Sequence (P03372 whole entry): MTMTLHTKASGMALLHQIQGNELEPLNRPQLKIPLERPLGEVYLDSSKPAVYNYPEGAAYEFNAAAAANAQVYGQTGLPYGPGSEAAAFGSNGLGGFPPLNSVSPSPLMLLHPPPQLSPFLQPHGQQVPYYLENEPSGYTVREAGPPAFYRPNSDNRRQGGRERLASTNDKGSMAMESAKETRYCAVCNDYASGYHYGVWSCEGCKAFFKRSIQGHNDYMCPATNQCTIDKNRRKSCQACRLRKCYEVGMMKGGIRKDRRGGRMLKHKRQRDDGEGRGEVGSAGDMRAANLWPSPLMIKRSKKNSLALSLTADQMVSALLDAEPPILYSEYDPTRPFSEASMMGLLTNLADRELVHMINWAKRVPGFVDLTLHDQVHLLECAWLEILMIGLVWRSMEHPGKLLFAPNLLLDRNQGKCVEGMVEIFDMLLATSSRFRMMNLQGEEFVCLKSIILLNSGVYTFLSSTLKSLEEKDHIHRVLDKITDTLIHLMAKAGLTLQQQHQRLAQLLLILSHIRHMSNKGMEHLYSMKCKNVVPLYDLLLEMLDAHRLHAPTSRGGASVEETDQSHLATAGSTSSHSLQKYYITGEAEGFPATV
- RUN_DESCRIPTION: IL-6 luciferase (IL6-luc) assay in ERα infected HAECT-1 cells
- EXPERIMENTAL_SETUP: ERα infected HAECT-1 cells, IL-1β, Ad5-IL-6(1250 bp).Luc virus, 15-20 h
MEASURED_ENDPOINT: IC50 (nM)

* C[C@@H]1c2cc(F)ccc2-c2ccccc2N1C(=O)c1cc(O)ccc1F | 263
* CC[C@@H]1c2cc(F)ccc2-c2ccccc2N1C(=O)c1ccc(O)cc1O | 2
* COc1cc(C(=O)N2c3ccccc3-c3ccc(F)cc3[C@H]2C)ccc1O | 364
* C[C@H]1c2cc(F)ccc2-c2ccccc2N1C(=O)c1cccc(O)c1 | 38
* C[C@@H]1c2cc(F)ccc2-c2ccccc2N1C(=O)c1ccc(O)cc1F | 9
* C[C@@H]1c2ccccc2-c2ccc(Cl)cc2N1C(=O)c1ccc(O)cc1O | 3
* C[C@H]1c2cc(F)ccc2-c2ccccc2N1C(=O)c1cc(O)ccc1Br | 832
* C[C@@H]1c2ccccc2-c2ccc(Cl)cc2N1C(=O)c1cccc(O)c1 | 9
* C[C@@H]1c2ccccc2-c2ccc(Cl)cc2N1C(=O)c1ccc(O)cc1 | 6
* CCC1c2cc(F)ccc2-c2ccccc2N1C(=O)c1ccc(O)cc1F (racemic) | 1
* C[C@H]1c2ccccc2-c2ccc(Cl)cc2N1C(=O)c1ccc(O)cc1 | 1000
* C[C@@H]1c2cc(F)ccc2-c2ccccc2N1C(=O)c1cc(O)ccc1Br | 301
* C[C@H]1c2ccccc2-c2ccc(Cl)cc2N1C(=O)c1ccc(O)cc1O | 789
* C[C@@H]1c2cc(F)ccc2-c2ccccc2N1C(=O)c1ccc(O)cc1 | 5
* C[C@@H]1c2ccccc2-c2ccc(F)cc2N1C(=O)c1ccc(O)cc1 (single isomer, unassigned) | 6
* C[C@H]1c2cc(F)ccc2-c2ccccc2N1C(=O)c1ccc(O)c(F)c1 | 1470
* C[C@H]1c2cc(F)ccc2-c2ccccc2N1C(=O)c1ccc(O)cc1F | 403
* C[C@H]1c2ccccc2-c2ccc(F)cc2N1C(=O)c1ccc(O)cc1O (single isomer, unassigned) | 272
* C[C@H]1c2cc(F)ccc2-c2ccccc2N1C(=O)c1ccc(O)cc1 | 414
* C[C@@H]1c2cc(F)ccc2-c2ccc(F)cc2N1C(=O)c1ccc(O)cc1 (single isomer, unassigned) | 1.5
* C[C@H]1c2cc(F)ccc2-c2ccc(F)cc2N1C(=O)c1ccc(O)cc1 (single isomer, unassigned) | 130
* C[C@@H]1c2ccccc2-c2ccc(F)cc2N1C(=O)c1cccc(O)c1 (single isomer, unassigned) | 11
* CC1c2cc(F)ccc2-c2ccc(F)cc2N1C(=O)c1ccc(O)cc1 (racemic) | 4.5
* C[C@H]1c2ccccc2-c2ccc(Cl)cc2N1C(=O)c1cccc(O)c1 | 377
* C[C@@H]1c2cc(F)ccc2-c2ccccc2N1C(=O)c1ccc(O)c(Br)c1 | 51
* C[C@@H]1c2cc(F)ccc2-c2ccccc2N1C(=O)c1ccc(Cl)c(O)c1 | 271
* C[C@@H]1c2cc(F)ccc2-c2ccccc2N1C(=O)c1cccc(O)c1 | 47
* CC[C@@H]1c2cc(F)ccc2-c2ccccc2N1C(=O)c1cccc(O)c1 | 40
* C[C@@H]1c2cc(F)ccc2-c2ccccc2N1C(=O)c1ccc(O)c(F)c1 | 31
* CC[C@H]1c2cc(F)ccc2-c2ccccc2N1C(=O)c1ccc(O)cc1 | 85
* CC[C@@H]1c2cc(F)ccc2-c2ccccc2N1C(=O)c1ccc(O)cc1 | 6
* C[C@@H]1c2ccccc2-c2ccc(F)cc2N1C(=O)c1ccc(O)cc1O (single isomer, unassigned) | 1
